# Tested on: human HepG2 cells
# procedure_details: MTT cell viability (cytotoxicity) assay
quantity_measured: % Viability (%)
Just the number please, in %, no unit attached.

Example entries and their recorded answers appear below.
COC(=O)c1ccc(COc2ccc(-c3nnn[nH]3)cc2)cc1 :: 85.35
c1ccc(CN2CCN(Cc3ccccc3)C2c2cccs2)cc1 :: 65.77
CC1CCN(Cc2cc(Cl)c3cccnc3c2O)CC1 :: 67.45

## Input Which % Viability value belongs to O=[N+]([O-])c1cc2c(cc1/C=N/c1ccc(S(=O)(=O)Nc3nccs3)cc1)OCO2 ?
## Output 55.1

## Input Next molecule up: NS(=O)(=O)c1ccc(/N=C/c2ccc(Br)cc2)cc1
## Output 70.45

## Input Also Cc1cc2c(c(=O)o1)C(c1ccc(F)cc1)C(C#N)=C(N)O2 (stereo not drawn) ?
## Output 80.9

---

# Tested on: A. baumannii strain 98-37-09
# procedure_details: Cellular accumulation of minocycline (HPLC, triple-quadrupole MS)
# Format: cell-based, Acinetobacter baumannii
# condition: human serum with 0.5 μg mL^−1 minocycline plus test compound (0.5×MEC, 1×MEC), 48 hours
quantity_measured: Minocylcine Per Cell (femtomoles cell^−1)
// units = femtomoles cell^−1; emit number, no label

CN1CCN(C(=O)CCSc2ccccc2)CC1 :: 3.2E−07
COC(=O)CCC(=O)Nc1ccc(S(N)(=O)=O)cc1 :: 8.38E−04
Cc1cc(O)c(C(C)C)cc1C1(c2cc(C(C)C)c(O)cc2C)OC(=O)c2ccccc21 :: 4.7E−08
O=C(c1ccc([N+](=O)[O-])cc1Cl)N1CCCc2ccccc21 :: 1.19E−05
CCc1ccc(/C=N/c2ccc(S(N)(=O)=O)cc2)cc1 :: 2.02E−05

## Input Sample N#Cc1c(/N=C/c2ccco2)sc2c1CCCC2 — what was its Minocylcine Per Cell (femtomoles cell^−1)?
## Output 5.84E−08

## Input Subsequent entry: COc1ccccc1C1N(Cc2ccccc2)CCN1Cc1ccccc1
## Output 3.59E−08

## Input Would you mind doing CCOc1cc(C(=O)N2CC(=O)Nc3ccccc32)cc(OCC)c1OCC as well?
## Output 3.78E−08

## Input Next entry: CCOc1ccc(/C=N/c2ccc(S(N)(=O)=O)cc2)cc1
## Output 6.8E−07

## Input COc1ccc2c(c1)CCC(C)N2S(=O)(=O)c1ccc(C2CNC(=O)C2)cc1 (stereo not shown) ?
## Output 1.08E−04

---

# System: A. baumannii strain 98-37-09
# procedure_details: Potentiation of ciprofloxacin toward serum grown A. baumannii
# Format: cell-based, Acinetobacter baumannii
# condition: 100% human serum, 0.125 μg ml^−1 ciprofloxacin, 1× or 2× MEC, 48 hour, growth inhibition
quantity_measured: Potentiate Ciprofloxacin A. baumannii

COc1cc(C(=O)Nc2ccccc2C(=O)NCC2CCCO2)cc(OC)c1OC (stereo not shown) [ST060053] :: No
CC(=O)NS(=O)(=O)c1ccc(N)cc1 [ST040724] :: No
Cc1cc2c(c(=O)o1)C(c1ccc(F)cc1)C(C#N)=C(N)O2 (stereo not shown) [ST007013] :: No
NS(=O)(=O)c1ccc(/N=C/c2ccc(Cl)cc2)cc1 [ST009675] :: Yes

## Input May I ask what Potentiate Ciprofloxacin A. baumannii has been recorded for COC(=O)CCC(=O)Nc1ccc(S(N)(=O)=O)cc1 [ST040289] ?
## Output No

## Input Repeat for the following compound: COc1ccc2c(c1)CCC(C)N2S(=O)(=O)c1ccc(C2CNC(=O)C2)cc1 (stereo not shown) [ST058899]
## Output No

## Input Try this compound too: CC(C)(C)NC(=O)CSc1nnnn1C(C)(C)C [ST060273]
## Output Yes

## Input Entry CCOC(=O)/C=C/C(=O)Nc1ccc(S(=O)(=O)Nc2nccs2)cc1 [ST026450] please
## Output No

## Input Next: CCOC(=O)/C=C/C(=O)Nc1ccc(S(N)(=O)=O)cc1 [ST026465]
## Output No

## Input Can you handle COC(=O)c1ccccc1NC(=O)CN1C(=O)c2ccccc2S1(=O)=O [ST058165] next?
## Output Yes

---

# % Viability per record follows
# Tested on: human HepG2 cells
# procedure_details: MTT cell viability (cytotoxicity) assay
Dear colleague, please return just the value in %, with no unit written.

Would you please look over these solved cases?
CCOc1ccccc1C(=O)Nc1sc2c(c1C(=O)OC(C)C)CCCC2 :: 73.54
C/C(=N\NC(=O)c1ccccc1F)c1ccccc1O :: 77.58

## Input Reported % Viability for O=C(c1ccc(Cl)cc1Cl)n1cc([N+](=O)[O-])cn1 : what is it?
## Output 70.87

## Input Quick one: Cc1ccc(C=Nc2cc([N+](=O)[O-])ccc2O)cc1
## Output 82.4

## Input Similarly, COc1ccc2c(c1)CCC(C)N2S(=O)(=O)c1ccc(C2CNC(=O)C2)cc1 (centres unmarked) ?
## Output 80.69

---

# Test system: human HepG2 cells
# procedure_details: MTT cell viability (cytotoxicity) assay
# condition: human, 48 h, 4 ×MEC
# Protocol: To distinguish putatively non-toxic from human cytotoxic compounds, conventional 3-(4,5-dimethylthiazol-2yl)-2,5-diphenyltetrazolium bromide (MTT) cell viability assays (American Type Culture Collection, Manassas, Va.) were performed for each compound of interest at 1× and 4× their MEC. […]
quantity_measured: % Viability (%)
Write the number in % without appending the unit.

# annotated cases, reported % Viability shown
NS(=O)(=O)c1ccc(/N=C/c2ccc(Cl)cc2)cc1 :: 96.6
CCOC(=O)/C=C/C(=O)Nc1ccc(S(=O)(=O)Nc2nccs2)cc1 :: 100
COc1ccc(O)c(/C=N/N=C/c2cc(OC)ccc2O)c1 :: 51.04

## Input So what % Viability did CCOC(=O)/C=C/C(=O)Nc1ccc(S(N)(=O)=O)cc1 get with human HepG2 cells?
## Output 100

## Input // repeat for CC(C)(C)NC(=O)CSc1nnnn1C(C)(C)C and report
## Output 90.1

---

# System: A. baumannii strain 98-37-09
# procedure_details: Cellular accumulation of minocycline (HPLC, triple-quadrupole MS)
# Format: cell-based, Acinetobacter baumannii
# condition: human serum with 0.5 μg mL^−1 minocycline plus test compound (0.5×MEC, 1×MEC), 48 hours
Some compounds, each annotated with its measured Minocylcine Per Cell (femtomoles cell^−1).
Please make sure the unit comes right after the number.

Cc1ccc(C2N(Cc3ccccc3)CCN2Cc2ccccc2)s1 :: 4.41E−08 femtomoles cell^−1
O=C1c2ccccc2C(=O)N1CCN1CCNCC1 :: 5.64E−05 femtomoles cell^−1
O=[N+]([O-])c1cccc(/C=N/c2ccc(S(=O)(=O)Nc3nccs3)cc2)c1 :: 1.13E−04 femtomoles cell^−1

Now turn to the next compound.
## Input Endpoint output: Minocylcine Per Cell (femtomoles cell^−1) of COc1ccc(/C=N/c2ccc(S(N)(=O)=O)cc2)c(OC)c1 . Value?
## Output 1.96E−04 femtomoles cell^−1

---

# Test system: A. baumannii strain 98-37-09
# procedure_details: Cellular accumulation of minocycline (HPLC, triple-quadrupole MS)
# Assay type: cell-based, Acinetobacter baumannii
# condition: human serum with 0.5 μg mL^−1 minocycline plus test compound (0.5×MEC, 1×MEC), 48 hours
Entries and their Minocylcine Per Cell (femtomoles cell^−1)
Report only the number, with the unit femtomoles cell^−1 understood.

Worked examples follow.
NS(=O)(=O)c1ccc(/N=C/c2cc(Br)ccc2O)cc1 :: 2.98E−08
Cc1ccc(C=Nc2cc([N+](=O)[O-])ccc2O)cc1 :: 1.15E−05
O=S(=O)(Nc1nccs1)c1ccc(/N=C/c2ccc3c(c2)OCO3)cc1 :: 4.16E−09
CCOC(=O)C1=C(N)OC2=C(C(=O)CCC2)C1c1sccc1C (stereo not drawn) :: 2.54E−07
NS(=O)(=O)c1ccc(/N=C/c2ccccc2O)cc1 :: 2.61E−07

# input for lookup
## Input Value lookup for Minocylcine Per Cell (femtomoles cell^−1); key = O=S(=O)(Nc1nccs1)c1ccc(/N=C/c2cc(Cl)cc3c2OCOC3)cc1
## Output 1.04E−08

---

Examples of molecules with documented Minocylcine Per Cell (femtomoles cell^−1) follow.
# System: A. baumannii strain 98-37-09
# procedure_details: Cellular accumulation of minocycline (HPLC, triple-quadrupole MS)
# Type: cell-based, Acinetobacter baumannii
# condition: human serum with 0.5 μg mL^−1 minocycline plus test compound (0.5×MEC, 1×MEC), 48 hours
Provide only the numeric value, understood in femtomoles cell^−1.

Worked cases, answers included:
Cc1ccc(C2N(Cc3ccccc3)CCCN2Cc2ccccc2)o1 :: 1.99E−04
COc1cc(/C=N/NC(=O)c2sc3ccccc3c2Cl)cc(OC)c1OC :: 3.615E−07
c1ccc(CN2CCN(Cc3ccccc3)C2c2cccs2)cc1 :: 5.9E−05
O=[N+]([O-])c1cc(/C=N/c2ccc(S(=O)(=O)NC3NC=CS3)cc2)c2c(c1)COCO2 (stereo not drawn) :: 8.12E−09
N=C(N)NS(=O)(=O)c1ccc(/N=C/c2c(O)ccc3ccccc23)cc1 :: 2.74E−08

## Input // returns reported Minocylcine Per Cell (femtomoles cell^−1) for input COC(=O)c1ccc(COc2ccc(-c3nnn[nH]3)cc2)cc1
## Output 3.67E−07

## Input // same read-out, input: NS(=O)(=O)c1ccc(/N=C/c2ccc(F)cc2)cc1
## Output 1.52E−05

## Input Another: COC(=O)c1ccccc1NC(=O)CN1C(=O)c2ccccc2S1(=O)=O
## Output 1.11E−04

## Input Here is the next molecule: C/C(=N\NC(=O)c1ccccc1F)c1ccccc1O
## Output 1.96E−04

Just for reference, patent US10471028B2 is where these values come from.
